# target.entity: farnesyl protein transferase (FPT) (Rattus norvegicus, UniProt Q02293+Q04631)
# Construct: were partially purified from rat brain by ammonium sulfate fractionation followed by Q-Sepharose; from tissue; host or cells: rat brain
# measurement.description: In vitro enzyme assay: inhibition of farnesyl protein transferase
# Type: biochemical
# assay.conditions: Ras-CVLS farnesylation, partially purified rat brain FPT; read-out: FPT IC50
Give IC50 for every item shown.
Give bare numbers, in µM.

A selection of reference data follows.
Task item: Param item = O=C(Oc1cccnc1)N1CCC(=C2c3ccc(Cl)cc3CCc3c2ncc(Br)c3O)CC1 [Compound 662.00] ; retrieve measured IC50.
Reply: 3.8

Task item: Param item = O=C(Oc1cccnc1)N1CCC(=C2c3ccc(Cl)cc3CCc3c(On4nnc5ccccc54)ccnc32)CC1 [Compound 656.00] ; retrieve measured IC50.
Reply: 0.71

Now look at this one.
Task item: Param item = CCOC(=O)N1CCC(C2(F)c3ccc(Cl)cc3CCc3cccnc32)CC1 (stereo not drawn) [Compound 530.00] ; retrieve measured IC50.
Reply: 3.7
